# System: CCRF-CEM
# measurement description: NCI tumour cell line growth inhibition, 48 h
The source made the active and inactive calls. Cut-off read from the data, not from the text of the source: active = GI50 up to about 1.1 µM and inactive = higher.
Outcome (select one): label 1 for active, label 0 for inactive

[in] GET /call?item= CCNC(=O)C(O)C1(O)CCC2[C@@H]3CCC4=CC(=O)C=C[C@]4(C)C3[C@@H](O)C[C@@]21C (stereo partly specified) returns the recorded outcome of this test.
[out] label 0

[in] Follow-up entry: CC(C)(C)[Si](C)(C)OCC1OC(n2ccc(=O)[nH]c2=O)C(O[Si](C)(C)C(C)(C)C)[C@@]12O[C@H]2C(N)=O (stereo partly specified)
[out] label 0

***
[in] Test call for this compound, please: C1C[N+]23CCC[N+]2(C1)CCC3 (stereo unspecified)
[out] label 0

[in] Then this compound: "Cc1cc2c(=O)cc(-c3ccc(Cl)cc3)oc2c(C(=O)O)c1C"
[out] label 0

[in] Can you check "C=CCN(Cc1ccncc1)C(=O)C(O)(c1ccccc1)c1ccccc1" next?
[out] label 0

[in] Next record, please: "NS(=O)(=O)c1ccc(Nc2c3ccccc3nc3c(C(=O)NCCCN(CCO)CCO)cccc23)cc1"
[out] label 0

[in] For "COc1c(CC(C)=O)ccc2c1C(=O)c1ccc(C=O)c(OC(C)=O)c1C2=O" then?
[out] label 0

[in] // query: CN1C(OCc2ccccc2)c2c(ccc3c2OCO3)C2C=Cc3cc4c(cc3C21)OCO4 (stereo unspecified)
[out] label 1

[in] Thanks! And "C=C(CO)[C@H]1Oc2ccc(C(C)=O)cc2[C@@H]1O" ?
[out] label 0

----------
# Test system: DMS-114
# measurement description: NCI tumour cell line growth inhibition, 48 h
Calls of active or inactive are those of the source. Cut-off read from the data, not from the text of the source: active = GI50 up to about 1.1 µM and inactive = higher.
Allowed answers: T (active), F (inactive)

Example results:
[in] Tell me the recorded outcome of this test for "CN(C)C=[N+]=[N-]" .
[out] F

[in] Same thing, different compound: "CCOc1ccc(/C(C=O)=C(\Cl)c2ccc(OC)c(OC)c2)cc1"
[out] F

[in] Try CC1(C(=O)NCCN(CCNC(=O)C2(C)CC3(C)CC(C)(C2)C(=O)NC3=O)CCNC(=O)C2(C)CC3(C)CC(C)(C2)C(=O)NC3=O)CC2(C)CC(C)(C1)C(=O)NC2=O (stereo not given) next.
[out] F

Next:
[in] Write down the call the test reported for this compound. Item: "COC(=O)c1ccc(Cl)cc1NC(=O)C1CCCCC1"
[out] F

[in] Same again, this time with C[Si](C)(C)OC1CC(=O)OC1n1cc(F)c(=O)[nH]c1=O (stereo not given)
[out] F

[in] Another compound to look at: "O=C1NC(=S)S/C1=C/c1ccco1"
[out] F

[in] Same question for COc1cc(OC)c2c(c1)C(=O)C(CC(C)O)=CC2=O (stereo not given) please.
[out] F

[in] # repeat for O=C1/C(=C/c2ccc(Cl)cc2)CCC1CN1CCOCC1 (stereo not given)
[out] F

[in] Query Cc1ccc(C)c(N2C(=O)C(=O)C(c3nc4ccccc4s3)/C(=N\c3cccc4c(=O)[nH][nH]c(=O)c34)C2=O)c1 (stereo not given) next
[out] F

----------
# Tested on: NCI-H522
# measurement description: NCI tumour cell line growth inhibition, 48 h
The source made the active and inactive calls. Cut-off read from the data, not from the text of the source: active = GI50 up to about 1.1 µM and inactive = higher.
Parameter call: string, one of true = active, false = inactive

[in] How did this test come out for NC(=O)C1CCCNC1 (stereo not drawn) ?
[out] false

Consider the additional compound presented here.
[in] How was "COc1c(CC(C)=O)ccc2c1C(=O)c1ccc(C=O)c(OC(C)=O)c1C2=O" classified in this test?
[out] false

----------
# Tested on: A549
# measurement description: NCI tumour cell line growth inhibition, 48 h
Activity calls are given as the source filed them. Rule as the data show it: active = GI50 up to about 1.1 µM and inactive = higher.
value type: GI50

Solved entries:
[in] For the molecule shown here, "O=c1c2nn3c(=O)n(-c4ccccc4)c(=O)c3nn2c(=O)n1-c1ccccc1" , give the reported GI50.
[out] > 100 µM (inactive)

[in] Ok, now CCOc1ccccc1NC(=O)C(C#N)C1=C(Cl)C(=O)c2ccccc2C1=O (stereo not given)
[out] 1.95 µM (inactive)

[in] // repeat for NC(=O)CCC(NC(=O)c1cccc2c(=O)c3ccccc3[nH]c12)C(=O)O (stereo not given) and report
[out] > 100 µM (inactive)

[in] // query: CC1CCC(C(C)(C)c2ccccc2)C(=O)C1 (stereo not given)
[out] > 100 µM (inactive)

[in] Next up: O=C1C=CC(=C(c2ccc(O)cc2)c2ccc(O)cc2)C=C1 [AURIN]
[out] 22 µM (inactive)

More entries:
[in] So what does the record say about GI50 for "CC1=CC(=O)/C(=C/NC(N)=S)C(=O)O1" ?
[out] > 100 µM (inactive)

[in] And then C=C1C(=O)O[C@H]2C1C[C@@H](OC(C)=O)/C(C)=C/CC[C@@]1(C)O[C@H]21 (stereo not given in full) , what is it?
[out] 49.7 µM (inactive)

[in] Same read-out for COc1cc(OC)c2c(c1)C(=O)C(CC(C)O)=CC2=O (stereo not given) ?
[out] 22.3 µM (inactive)

[in] Proceed to "COc1ccc(C[C@@H]2CN(C(=O)c3ccccc3)[C@H](Cc3ccc(O)cc3)CN2C(=O)c2ccccc2)cc1Br"
[out] > 100 µM (inactive)

[in] Note, next up: "O=C(O)Cc1ccc(Nc2nc3cc(C(F)(F)F)ccc3nc2C(=O)O)cc1"
[out] > 100 µM (inactive)

----------
# Tested on: UACC-62
# measurement description: NCI tumour cell line growth inhibition, 48 h
Activity calls are given as the source filed them. Cut-off read from the data, not from the text of the source: active = GI50 up to about 1.1 µM and inactive = higher.
Classes to choose from: active, inactive

Worked examples follow.
[in] Which outcome was assigned to "O=C1NC(=S)S/C1=C/c1ccco1" in this test?
[out] inactive

[in] Repeat for the following compound: "Clc1ccc(OCc2nnc3n2N=C(c2ccc(Br)cc2)CS3)cc1"
[out] inactive

[in] Entry to check: "Cc1ccc(S(=O)(=O)N/N=C/c2oc(-c3ccncc3)c(-c3ccncc3)c2[N+](=O)[O-])cc1"
[out] inactive

[in] Same for CCCCCC(C[N+]1(C)CCOCC1)C(=O)/C=C/c1ccccc1 (stereo not given)
[out] inactive

[in] Input "CN(CCNC(=O)c1cn(C)c2c1ccc1cc(Cl)c(Cl)cc12)CCNC(=O)c1cn(C)c2c1ccc1cc(Cl)c(Cl)cc12"
[out] inactive

More entries:
[in] Which result was noted for this compound in the test: "C/C1=C\[C@H](C)C[C@H](C)OC(=O)C[C@H](c2ccc(O)cc2)NC(=O)[C@H](Cc2ccc(O)c(I)c2)N(C)C(=O)[C@H](C)NC(=O)[C@@H](C)C1"
[out] active

[in] Same thing, different compound: "CC(=O)/C=C1\Nc2ccc([N+](=O)[O-])cc2N\C1=C/C(C)=O"
[out] inactive

[in] Can you check "Cn1cc/c(=N\N=c2/ccn(C)c3ccccc23)c2ccccc21" next?
[out] inactive

[in] Query "Nc1nc(O)c(Br)c(-c2cccc([N+](=O)[O-])c2)n1" next
[out] inactive

[in] Item: "Nc1ncc(CN2CCOCC2)c(-c2ccccc2O)n1"
[out] inactive

----------
# System: TK-10
# measurement description: NCI tumour cell line growth inhibition, 48 h
Activity calls are given as the source filed them. No stated cut-off is given here; in the data, active = GI50 up to about 1.1 µM and inactive = higher.
value type: GI50

[in] Reported GI50, molecule COC(=O)C1C(C)N1C (centres undefined) : ____
[out] > 100 µM (inactive)

[in] // same read-out, input: "Cc1cccc(NC(=S)Nc2ccccc2Cl)n1"
[out] 34.8 µM (inactive)

[in] Can you check "C/C1=C\[C@H](C)C[C@H](C)OC(=O)C[C@H](c2ccc(O)cc2)NC(=O)[C@H](Cc2ccc(O)c(I)c2)N(C)C(=O)[C@H](C)NC(=O)[C@@H](C)C1" next?
[out] 0.0586 µM (active)

[in] Would you kindly repeat that for COc1ccc(N2C(=O)C3c4[nH]c5ccc(Br)cc5c4C4CCC(C(C)(C)C)CC4C3C2=O)cc1 (centres undefined) ?
[out] > 100 µM (inactive)

[in] Next entry: COC(=O)CCC(C)[C@H]1CCC2C3C(C[C@H](OC(C)=O)[C@@]21C)[C@@]1(C)CCC2(C[C@H]1C[C@H]3OC(C)=O)OOC1(CCCCC1)OO2 (some centres undefined)
[out] > 100 µM (inactive)

[in] What about this molecule? "N#Cc1c(-c2ccccc2)c(C=O)c(=O)n2c1[nH]c1ccccc12"
[out] 77.3 µM (inactive)

More entries:
[in] Which GI50 value belongs to "O=C(CNc1ccccc1C(=O)O)Nn1cnc2ccc(S(=O)(=O)Nc3ccccc3C(=O)O)cc2c1=O" ?
[out] > 100 µM (inactive)

[in] Okay, and CCCC(C)n1c(C)nc2c1C(=O)c1ccccc1C2=O (centres undefined) ?
[out] 31 µM (inactive)

[in] Please do the same for "Clc1ccc(OCc2nnc3n2N=C(c2ccc(Br)cc2)CS3)cc1" as well.
[out] 14.4 µM (inactive)

[in] # iterate: "O=C1CCCC2=C1CC1=C(CCCC1=O)N2c1ccccc1"
[out] > 100 µM (inactive)

[in] And what about the molecule "CNC(=O)OCc1c2ccncc2c(C)c2c1[nH]c1ccc(OC)cc12" ?
[out] 0.953 µM (active)

[in] Quick one: "N#CNc1nc(N)c(-c2ccc(Cl)cc2)c(C(=O)Nc2nccs2)n1"
[out] > 100 µM (inactive)

[in] Queued: O=C(CC(=O)N1N=C(N(c2ccccc2)c2ccccc2)CC1c1ccccc1)Nc1cccc(Cl)c1 (centres undefined)
[out] > 100 µM (inactive)

[in] Record: C=C(C(=O)OC1C(CO)OC(OCC2CC[C@@H]3C[C@]4(OC(=O)C3=C)C(C)=CC(=O)C24)C(O)C1O)[C@@H]1CCC(CO)C2C(=O)C=C(C)[C@@]2(O)C1 (some centres undefined)
[out] 3.07 µM (inactive)

[in] Same read-out for "Cc1ccc(/C=C2\Sc3scc(-c4ccccc4)[n+]3C2=O)cc1" ?
[out] 19.8 µM (inactive)

[in] Another molecule to check: "O=C=C=P(c1ccccc1)(c1ccccc1)c1ccccc1"
[out] 3.46 µM (inactive)

[in] Queued: C=CCO[C@H]1CC[C@@]2(C)C(CC[C@]3(C)C2CC=C2[C@@H]4[C@@H](C)C(C)CC[C@]4(C(=O)O)CCC23C)C1(C)C (some centres undefined)
[out] 18.2 µM (inactive)

[in] Also "COC(=O)c1c(C)cccc1/C=C1/Cc2c(C)cccc2C1=O" ?
[out] > 100 µM (inactive)

[in] Do the same for "Cc1cc(C)nc(NC(=O)COc2ccc(Cl)cc2)c1" please
[out] > 100 µM (inactive)
